- assay_info: protein stability index of a GFP-peptide fusion (GPS, HEK-293T) (PSI 1-6); higher = more stable;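 also: 24-mer peptide tiles fused after GFP, lentivirally expressed, FACS-sorted into six equal bins by GFP/DsRed ratio, decoded by Illumina sequencing, PSI is the read-weighted mean bin number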
- conditions: treatment: MLN4924 1 uM, 8 h; c terminus: a fixed tail appended
outcome_measure: protein stability index
// no unit, no text: just the number

Completed entries (count: 6):
KMIGFPSSAGSVSPRSTSVTTTSS [KRT13]    4.16
KLERIARLEDKVKTLKAENAGLSS [JUNB]    3.97
ARSIAEQAHELAYDPNYMSPFAQF [PPTC7]    3.08
AAEYHAQRLKAVIVIQTYYRQWHA [IQUB]    4.88
LAPAGQTSEESRPRLSQLSVTDVT [TNXB]    5.13
SLRDSGYFYDPIERDIEIGFLPWL [RSPH3]    2.37

Need protein stability index of SQVPTGEVFYYSCEYNFVSPSKSF [CFHR2] , thanks.
2.08

Name the recorded protein stability index for EDGIHTLTCALMLLNTDLHGHNIG [PSD2] .
2.75

State the recorded protein stability index for this entry: QHEEICLGLFTLILTEPAQAQKCY [INTS3]
2.32

# get_value(readout='protein stability index', item= GESYESCCPTSREAAVEALELLGA [FEM1A] )
4.66

Fill blank: measured protein stability index of the sequence LASSLSPSQDERMRSPQNLHSQED [NOL4L] is ____.
5.54

I have this sequence here, MRDLYMKNGQGFALVYSITAQSTF [RAP1B] , and I need its recorded protein stability index.
2.78

Report protein stability index for KKVLNHGYDDDNHDYIVRSGERWL [DYRK1B] please.
3.55

Requested field: protein stability index. Item: VTEFILLGLTQNPEGQKVLFVTFL [OR4A15]
3.27

Form field: reported protein stability index of DESQISAEEAEDHGRIPDPDDFVP [FAM189A2]
5.61

Which protein stability index is listed for EGIRQTEYTLTGLKFDMKYMNFRV [FSD1] ?
2.56

---

- assay_info: protein stability index of a GFP-peptide fusion (GPS, HEK-293T) (PSI 1-6); higher = more stable
- conditions: treatment: DMSO; c terminus: a fixed tail appended
The entries below come with measured protein stability index values attached.

Examples with answers:
INEDLKTCSRVDYCLLSDHGCEYS [MATN2]    3.41
TKNKELTDEFRELRATVERMGLMK [FADS1]    3.71
VAVNGESVETLDHDSVVEMIRKGG [PDZK1]    4.61
TQHWPIRLDGQQEPQPFVTSDVYS [MYORG]    3.56
VSCPEGRADCASESACSSDSLDEA [PWWP2B]    5.4
LHYKWIPVEDSHTADISSHFQEAI [DUSP5]    2.17
LPNKQVLGLSKLARIVEIYSRRLQ [GCH1]    2.31
ADFKGVLQRPSYKFFFKSMDDDFG [DVL3]    2.5

GET /values?readout=protein stability index&item= DSISLHQPCNPPAPAGDKGFQPPS [DMRTC1]
5

Look up protein stability index: SAESMVEYGTCMCLVKGIFYHCSN [SPRY1]
2.65

What does the data say about its protein stability index? Entry: ELIRNIQELLKRTIMQAVSQIRLN [TEKT4]
3

What does the record list as protein stability index for RRPRTAFTQNQIEVLENVFRVNCY [HESX1] ?
2.39

Reported protein stability index for PFSECGEAVSDSTPFLTNHGAHKA [ZNF263] : what is it?
4.76
